IC50 values, listed per item
- ASSAY_SYSTEM: T1, GHRH receptor of human pituitary membranes (human, UniProt Q02643)
- T1 sequence: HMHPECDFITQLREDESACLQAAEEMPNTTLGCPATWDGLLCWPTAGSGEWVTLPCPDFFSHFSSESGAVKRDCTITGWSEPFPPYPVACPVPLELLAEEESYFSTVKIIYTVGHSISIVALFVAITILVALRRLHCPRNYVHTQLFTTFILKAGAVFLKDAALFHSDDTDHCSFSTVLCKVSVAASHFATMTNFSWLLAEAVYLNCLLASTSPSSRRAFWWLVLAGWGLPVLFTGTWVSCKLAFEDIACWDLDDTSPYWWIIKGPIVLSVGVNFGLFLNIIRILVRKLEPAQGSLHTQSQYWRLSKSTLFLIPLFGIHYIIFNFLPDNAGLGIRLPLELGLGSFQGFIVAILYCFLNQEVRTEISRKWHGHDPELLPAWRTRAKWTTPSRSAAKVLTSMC
- PROTOCOL: competition vs 125I-JV-1-42, human pituitary membranes
Non-standard residues stand in square brackets, D forms with d. No end group written: not given here. *: point of attachment. NMeY = CN[C@@H](Cc1ccc(O)cc1)C(=O)O; Agmatine = N=C(N)NCCCCN*; Nle = CCCC[C@H](N)C(=O)O; Orn = NCCC[C@H](N)C(=O)O; Abu = CC[C@H](N)C(=O)O
Your answer is read as nM, so omit the unit and give the number.

Consider the following illustrative entries.
INSERT INTO assay_data (binder, quantitative_result) VALUES
  ('YADAIFTNSYRKVLGQLSARKLLQDIMSR-NH2 (ligand) [hGHRH(1-29)NH2]', 4.06),
  ('[NMeY]ADAIFTQSYR[Orn]VL[Abu]QLSAR[Orn]LLQDI[Nle]D[Agmatine] [P-20356 [N-Me-Tyr^1, Gln^8, Orn^12, Abu^15, Orn^21, Nle^27, Asp^28, Agm^29]hGHRH(1-29)NH2]', 0.01);

The record that follows has no IC50 shown yet.
Give recorded IC50. YADAIFTNSYRKVLGQLSARKLLQDIMSRQ (Dat^1; D-Ala^2; Fpa5^6; Orn^12; Abu^15; Orn^21; Nle^27; Gab^30 (in place of Gln^30); C-terminal -NH2) [P-25502 [Dat^1, D-Ala^2, Fpa5^6, Orn^12, Abu^15, Orn^21, Nle^27, Gab^30]hGHRH(1-30)NH2]
0.07
